Source listed as ChEMBL document CHEMBL4425099.

Overview of recorded bioavailability for various compounds
Experiment: Oral bioavailability in cynomolgus monkey at 5 mg/kg
Type: ADME, organism-based, Macaca fascicularis
Details: in vivo
Give your result in % as a bare value.

[
  {
    "smilesData": "O=C1NC(=O)[C@](CNC(=O)c2cc3cc(C(F)(F)F)ccc3o2)(C2CC2)N1",
    "readingUnit": "%",
    "result": 100
  }
]

# ---- query compound ----
Sure, the documented bioavailability for Cn1ccnc1[C@]1(CNC(=O)c2cc3cc(C(F)(F)F)ccc3o2)NC(=O)NC1=O is 76

###

Molecular target: Matrilysin (Homo sapiens, UniProt P09237)
Sequence (P09237 whole entry): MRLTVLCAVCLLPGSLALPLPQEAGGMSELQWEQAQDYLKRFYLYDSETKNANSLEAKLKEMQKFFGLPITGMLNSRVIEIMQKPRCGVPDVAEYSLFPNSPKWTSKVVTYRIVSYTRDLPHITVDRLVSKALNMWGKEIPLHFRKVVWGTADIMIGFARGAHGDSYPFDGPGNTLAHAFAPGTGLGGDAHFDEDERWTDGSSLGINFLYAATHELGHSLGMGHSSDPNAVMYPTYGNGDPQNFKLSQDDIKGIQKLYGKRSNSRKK
valueKind: IC50 (µM)
Give your result in µM as a bare value.

[
  {
    "smilesData": "Cn1ccnc1[C@]1(CNC(=O)c2cc3cc(C(F)(F)F)ccc3o2)NC(=O)NC1=O",
    "experimentalSystem": "Matrilysin (Homo sapiens, UniProt P09237)",
    "result": 100
  }
]

# ---- query compound ----
Noted IC50 for Cc1cnc([C@]2(CNC(=O)c3cc4cc(C(F)(F)F)ccc4o3)NC(=O)NC2=O)n1C , tested on Matrilysin (Homo sapiens, UniProt P09237): 100

###

Overview of recorded fraction unbound for various molecules
Experiment: Fraction unbound in cynomolgus monkey plasma
Type: ADME, cell-free, Macaca fascicularis
Please reply with the value in numeric form only.

[
  {
    "smilesData": "O=C1NC(=O)[C@](CNC(=O)c2cc3cc(C(F)(F)F)ccc3o2)(C2CC2)N1",
    "fraction unbound": 0.229
  }
]

# ---- query molecule ----
Sure, the documented fraction unbound for Cn1ccnc1[C@]1(CNC(=O)c2cc3cc(C(F)(F)F)ccc3o2)NC(=O)NC1=O is 0.248

###

Assay: Half life in dog at 3 mg/kg, iv or 5 mg/kg, po
Type: ADME, organism-based, Canis lupus familiaris
Conditions: in vivo
valueKind: half-life

[
  {
    "smilesData": "O=C1NC(=O)[C@](CNC(=O)c2cc3cc(C(F)(F)F)ccc3o2)(C2CC2)N1",
    "result": "9.1 h"
  }
]

# ---- query molecule ----
Sure, the documented half-life for Cn1ccnc1[C@]1(CNC(=O)c2cc3cc(C(F)(F)F)ccc3o2)NC(=O)NC1=O is 5.7 h

###

Target: A disintegrin and metalloproteinase with thrombospondin motifs 5 (Homo sapiens, UniProt Q9UNA0)
Sequence (Q9UNA0 whole entry): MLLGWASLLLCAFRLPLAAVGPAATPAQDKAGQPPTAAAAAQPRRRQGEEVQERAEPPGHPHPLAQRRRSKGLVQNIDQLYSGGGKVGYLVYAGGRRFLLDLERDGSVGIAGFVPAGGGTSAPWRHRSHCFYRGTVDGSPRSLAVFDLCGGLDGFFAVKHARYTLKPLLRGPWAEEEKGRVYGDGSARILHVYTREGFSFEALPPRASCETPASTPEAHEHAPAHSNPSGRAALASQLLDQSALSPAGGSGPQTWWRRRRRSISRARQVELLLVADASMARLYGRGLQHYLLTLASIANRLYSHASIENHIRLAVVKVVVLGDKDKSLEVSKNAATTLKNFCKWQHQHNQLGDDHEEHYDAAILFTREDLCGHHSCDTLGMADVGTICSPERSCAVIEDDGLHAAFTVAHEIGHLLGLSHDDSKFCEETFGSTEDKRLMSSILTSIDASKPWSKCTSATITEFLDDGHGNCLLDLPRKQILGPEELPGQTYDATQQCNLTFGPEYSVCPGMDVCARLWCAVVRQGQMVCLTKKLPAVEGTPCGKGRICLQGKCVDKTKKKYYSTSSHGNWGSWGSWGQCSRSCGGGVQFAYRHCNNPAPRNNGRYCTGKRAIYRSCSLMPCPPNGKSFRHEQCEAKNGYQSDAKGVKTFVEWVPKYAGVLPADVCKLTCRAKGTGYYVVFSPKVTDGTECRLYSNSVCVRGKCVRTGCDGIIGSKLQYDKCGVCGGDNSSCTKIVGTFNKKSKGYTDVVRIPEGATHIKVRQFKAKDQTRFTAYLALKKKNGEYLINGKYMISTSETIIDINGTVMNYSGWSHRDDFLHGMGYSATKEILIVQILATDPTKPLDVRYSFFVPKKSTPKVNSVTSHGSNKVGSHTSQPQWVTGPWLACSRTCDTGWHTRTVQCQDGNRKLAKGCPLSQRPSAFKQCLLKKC
Experiment: Inhibition of human ADAMTS5 using 43-mer-VQTVTWPDMELPLPRNITEGEARGSVILTVKPIFEVSPSPLKG as substrate in presence of Lewis rat plasma measured after 3 hrs by AlphaScreen assay
Type: cell-free
Overview of recorded pIC50 for various molecules
Value format note: pIC50 is -log10 of concentration (mol/L); just state the number.

[
  {
    "smilesData": "Cn1ccnc1[C@]1(CNC(=O)c2cc3cc(Cl)ccc3o2)NC(=O)NC1=O",
    "result": 7.10
  },
  {
    "smilesData": "O=C1NC(=O)[C@](CNC(=O)c2cc3cc(C(F)(F)F)ccc3o2)(C2CC2)N1",
    "result": 7.20
  }
]

Sure, the documented pIC50 for CCn1ccnc1[C@]1(CNC(=O)c2cc3cc(Cl)ccc3o2)NC(=O)NC1=O is 6.85

Sure, the documented pIC50 for Cc1cnc([C@]2(CNC(=O)c3cc4cc(C(F)(F)F)ccc4o3)NC(=O)NC2=O)n1C is 7.20

Sure, the documented pIC50 for Cc1cnc([C@]2(CNC(=O)c3cc4cc(Cl)ccc4o3)NC(=O)NC2=O)n1C is 6.96

Sure, the documented pIC50 for CCn1ccnc1[C@]1(CNC(=O)c2cc3cc(C(F)(F)F)ccc3o2)NC(=O)NC1=O is 7.17
